Items are presented alongside their recorded MIC.
# Test system: Acinetobacter baumannii
# measurement.notes: Antimicrobial activity against multiple drug resistant-Acinetobacter baumannii ATCC BAA-1605 after 18 hrs by tube microdilution method
# Assay type: functional
# conditions.used: ATCC BAA-1605, 18 h
Square brackets hold non-standard residues; d marks the D form. Peptide text beside a SMILES is read from it. Bip = N[C@@H](Cc1ccc(-c2ccccc2)cc1)C(=O)O; 2Nal = N[C@@H](Cc1ccc2ccccc2c1)C(=O)O; AEEA = NCCOCCOCC(=O)O; GABA = NCCCC(=O)O
Hi! Could you send only the number? It should be in µM, unit omitted.

| molecule | experimental.system | observed.measurement |
| --- | --- | --- |
| NCCCC[C@@H]1NC(=O)[C@H](Cc2ccc3ccccc3c2)NC(=O)COCCOCCNC(=O)[C@H](Cc2ccc(-c3ccccc3)cc2)NC(=O)[C@H](CCCCN)NC(=O)[C@H](CCCCN)NC(=O)[C@H](Cc2ccc3ccccc3c2)NC(=O)[C@H](CCCCN)NC(=O)[C@H](CC(N)=O)NC1=O (cyclo(K[2Nal]KK[Bip][AEEA][2Nal]KN)) | Acinetobacter baumannii | 16 |

Report MIC for NCCCC[C@@H]1NC(=O)[C@H](Cc2ccc3ccccc3c2)NC(=O)CCCNC(=O)[C@H](Cc2ccc(-c3ccccc3)cc2)NC(=O)[C@H](CCCCN)NC(=O)[C@H](CCCCN)NC(=O)[C@H](Cc2ccc3ccccc3c2)NC(=O)[C@H](CCCCN)NC(=O)[C@H](CC(N)=O)NC1=O (cyclo([2Nal]KK[Bip][GABA][2Nal]KNK)) please. 32

====

# System: Lipid bilayer
# measurement.notes: Binding affinity to DOPE/DOPG large unilamellar vesicles in 3:1 ratio assessed as exciton split measured at 225 nanometer in NaHCO3 buffer
The source made the active and inactive calls. No cut-off for these calls is given here. Bridge positions count the residues as written; N and C are the ends. Square brackets hold non-standard residues; d marks the D form. Peptide text beside a SMILES is read from it. Bip = N[C@@H](Cc1ccc(-c2ccccc2)cc1)C(=O)O; 2Nal = N[C@@H](Cc1ccc2ccccc2c1)C(=O)O; Dab = NCC[C@H](N)C(=O)O; Aoc = NCCCCCCCC(=O)O
readout.kind: Activity

| compound | experimental.system | observed.measurement |
| --- | --- | --- |
| NCCCC[C@@H]1NC(=O)[C@H](CCCCN)NC(=O)[C@H](Cc2ccc3ccccc3c2)NC(=O)[C@H](CCCCN)NC(=O)[C@H](CC(N)=O)NC(=O)[C@H](CCCCN)NC(=O)[C@H](Cc2ccc3ccccc3c2)NC(=O)[C@@H](N)CCNC(=O)[C@H](Cc2ccc(-c3ccccc3)cc2)NC1=O (H-[Dab][2Nal]KNK[2Nal]KK[Bip]; lactam 1-C) | Lipid bilayer | Active |
| NCCCC[C@@H]1NC(=O)[C@H](Cc2ccc3ccccc3c2)NC(=O)CCCCCCCNC(=O)[C@H](Cc2ccc(-c3ccccc3)cc2)NC(=O)[C@H](CCCCN)NC(=O)[C@H](CCCCN)NC(=O)[C@H](Cc2ccc3ccccc3c2)NC(=O)[C@H](CCCCN)NC(=O)[C@H](CC(N)=O)NC1=O (cyclo([2Nal]KK[Bip][Aoc][2Nal]KNK)) | Lipid bilayer | Active |

====

# System: Lipid bilayer
# measurement.notes: Binding affinity to DOPE/DOPG large unilamellar vesicles in 3:1 ratio assessed as exciton split measured at 225 nanometer in NaHCO3 buffer
Calls of active or inactive are those of the source. The rule behind the calls is not given here. Bridge positions count the residues as written; N and C are the ends. Square brackets hold non-standard residues; d marks the D form. Peptide text beside a SMILES is read from it. Bip = N[C@@H](Cc1ccc(-c2ccccc2)cc1)C(=O)O; 2Nal = N[C@@H](Cc1ccc2ccccc2c1)C(=O)O; Ahx = NCCCCCC(=O)O
readout.kind: Activity

| compound | observed.measurement |
| --- | --- |
| NCCCC[C@@H]1NC(=O)[C@H](Cc2ccc3ccccc3c2)NC(=O)CNC(=O)[C@H](Cc2ccc(-c3ccccc3)cc2)NC(=O)[C@H](CCCCN)NC(=O)[C@H](CCCCN)NC(=O)[C@H](Cc2ccc3ccccc3c2)NC(=O)[C@H](CCCCN)NC(=O)[C@H](CC(N)=O)NC1=O (cyclo([2Nal]KK[Bip]G[2Nal]KNK)) | Active |
| NCCCC[C@@H]1NC(=O)[C@H](CCCCN)NC(=O)[C@H](Cc2ccc3ccccc3c2)NC(=O)[C@H](CCCCN)NC(=O)[C@H](CC(N)=O)NC(=O)[C@H](CCCCN)NC(=O)[C@H](Cc2ccc3ccccc3c2)NC(=O)[C@@H](N)CCCCNC(=O)[C@H](Cc2ccc(-c3ccccc3)cc2)NC1=O (H-K[2Nal]KNK[2Nal]KK[Bip]; lactam 1-C) | Active |
| NCCCC[C@@H]1NC(=O)[C@H](Cc2ccc3ccccc3c2)NC(=O)CCCCCCCCCNC(=O)[C@H](Cc2ccc(-c3ccccc3)cc2)NC(=O)[C@H](CCCCN)NC(=O)[C@H](CCCCN)NC(=O)[C@H](Cc2ccc3ccccc3c2)NC(=O)[C@H](CCCCN)NC(=O)[C@H](CC(N)=O)NC1=O | Active |
| NCCCC[C@@H]1NC(=O)[C@H](Cc2ccc3ccccc3c2)NC(=O)CCCCCNC(=O)[C@H](Cc2ccc(-c3ccccc3)cc2)NC(=O)[C@H](CCCCN)NC(=O)[C@H](CCCCN)NC(=O)[C@H](Cc2ccc3ccccc3c2)NC(=O)[C@H](CCCCN)NC(=O)[C@H](CC(N)=O)NC1=O (cyclo([2Nal]KK[Bip][Ahx][2Nal]KNK)) | Active |

====

Items are presented alongside their recorded pEC50.
# Tested on: Erythrocyte
# measurement.notes: Hemolytic activity in human RBC after 1 hr by microplate reader method
# Format: ADME, cell-based
Square brackets hold non-standard residues; d marks the D form. Peptide text beside a SMILES is read from it. Bip = N[C@@H](Cc1ccc(-c2ccccc2)cc1)C(=O)O; 2Nal = N[C@@H](Cc1ccc2ccccc2c1)C(=O)O; GABA = NCCCC(=O)O
// pEC50: -log10(molar conc.)

| compound | pEC50 |
| --- | --- |
| NCCCC[C@@H]1NC(=O)[C@H](CCCCN)NC(=O)[C@H](Cc2ccc3ccccc3c2)NC(=O)[C@H](CCCCN)NC(=O)[C@@H](CC(N)=O)NC(=O)[C@H](CCCCN)NC(=O)[C@H](Cc2ccc3ccccc3c2)NC(=O)CCCCCCCCCNC(=O)[C@H](Cc2ccc(-c3ccccc3)cc2)NC1=O | 5.30 |

Report pEC50 for NCCCC[C@@H]1NC(=O)[C@H](Cc2ccc3ccccc3c2)NC(=O)CCCNC(=O)[C@H](Cc2ccc(-c3ccccc3)cc2)NC(=O)[C@H](CCCCN)NC(=O)[C@H](CCCCN)NC(=O)[C@H](Cc2ccc3ccccc3c2)NC(=O)[C@H](CCCCN)NC(=O)[C@H](CC(N)=O)NC1=O (cyclo([2Nal]KK[Bip][GABA][2Nal]KNK)) please. 3.81

====

Items are presented alongside their recorded MIC.
# System: Klebsiella pneumoniae
# measurement.notes: Antimicrobial activity against multiple drug resistant-Klebsiella pneumoniae ATCC 700603 after 18 hrs by tube microdilution method
# Format: functional
# conditions.used: Klebsiella pneumoniae, 700603, 18 h
Bridge positions count the residues as written; N and C are the ends. Square brackets hold non-standard residues; d marks the D form. Peptide text beside a SMILES is read from it. Bip = N[C@@H](Cc1ccc(-c2ccccc2)cc1)C(=O)O; 2Nal = N[C@@H](Cc1ccc2ccccc2c1)C(=O)O; Dab = NCC[C@H](N)C(=O)O; AEEA = NCCOCCOCC(=O)O; Aoc = NCCCCCCCC(=O)O; Ahx = NCCCCCC(=O)O; AEA = NCCOCC(=O)O; GABA = NCCCC(=O)O
Hi! Could you send only the number? It should be in µM, unit omitted.

| compound | readout.kind | observed.measurement |
| --- | --- | --- |
| NCCCC[C@@H]1NC(=O)[C@H](Cc2ccc3ccccc3c2)NC(=O)COCCOCCNC(=O)[C@H](Cc2ccc(-c3ccccc3)cc2)NC(=O)[C@H](CCCCN)NC(=O)[C@H](CCCCN)NC(=O)[C@H](Cc2ccc3ccccc3c2)NC(=O)[C@H](CCCCN)NC(=O)[C@H](CC(N)=O)NC1=O (cyclo(K[2Nal]KK[Bip][AEEA][2Nal]KN)) | MIC | 64 |
| NCCCC[C@@H]1NC(=O)[C@H](Cc2ccc3ccccc3c2)NC(=O)COCCNC(=O)[C@H](Cc2ccc(-c3ccccc3)cc2)NC(=O)[C@H](CCCCN)NC(=O)[C@H](CCCCN)NC(=O)[C@H](Cc2ccc3ccccc3c2)NC(=O)[C@H](CCCCN)NC(=O)[C@H](CC(N)=O)NC1=O (cyclo([2Nal]KK[Bip][AEA][2Nal]KNK)) | MIC | 64 |
| NCCCC[C@@H]1NC(=O)[C@H](Cc2ccc3ccccc3c2)NC(=O)CNC(=O)[C@H](Cc2ccc(-c3ccccc3)cc2)NC(=O)[C@H](CCCCN)NC(=O)[C@H](CCCCN)NC(=O)[C@H](Cc2ccc3ccccc3c2)NC(=O)[C@H](CCCCN)NC(=O)[C@H](CC(N)=O)NC1=O (cyclo([2Nal]KK[Bip]G[2Nal]KNK)) | MIC | 32 |
| NCCCC[C@@H]1NC(=O)[C@H](Cc2ccc3ccccc3c2)NC(=O)CCCCCNC(=O)[C@H](Cc2ccc(-c3ccccc3)cc2)NC(=O)[C@H](CCCCN)NC(=O)[C@H](CCCCN)NC(=O)[C@H](Cc2ccc3ccccc3c2)NC(=O)[C@H](CCCCN)NC(=O)[C@H](CC(N)=O)NC1=O (cyclo([2Nal]KK[Bip][Ahx][2Nal]KNK)) | MIC | 8 |

Report MIC for NCCCC[C@@H]1NC(=O)[C@H](Cc2ccc3ccccc3c2)NC(=O)CCCCCCCNC(=O)[C@H](Cc2ccc(-c3ccccc3)cc2)NC(=O)[C@H](CCCCN)NC(=O)[C@H](CCCCN)NC(=O)[C@H](Cc2ccc3ccccc3c2)NC(=O)[C@H](CCCCN)NC(=O)[C@H](CC(N)=O)NC1=O (cyclo([2Nal]KK[Bip][Aoc][2Nal]KNK)) please. 16

Report MIC for NCCCC[C@@H]1NC(=O)[C@H](CCCCN)NC(=O)[C@H](Cc2ccc3ccccc3c2)NC(=O)[C@H](CCCCN)NC(=O)[C@H](CC(N)=O)NC(=O)[C@H](CCCCN)NC(=O)[C@H](Cc2ccc3ccccc3c2)NC(=O)[C@@H](N)CCCCNC(=O)[C@H](Cc2ccc(-c3ccccc3)cc2)NC1=O (H-K[2Nal]KNK[2Nal]KK[Bip]; lactam 1-C) please. 64

Report MIC for NCCCC[C@@H]1NC(=O)[C@H](CCCCN)NC(=O)[C@H](Cc2ccc3ccccc3c2)NC(=O)[C@H](CCCCN)NC(=O)[C@H](CC(N)=O)NC(=O)[C@H](CCCCN)NC(=O)[C@H](Cc2ccc3ccccc3c2)NC(=O)[C@@H](N)CCNC(=O)[C@H](Cc2ccc(-c3ccccc3)cc2)NC1=O (H-[Dab][2Nal]KNK[2Nal]KK[Bip]; lactam 1-C) please. 64

Report MIC for NCCCC[C@@H]1NC(=O)[C@H](Cc2ccc3ccccc3c2)NC(=O)CCCNC(=O)[C@H](Cc2ccc(-c3ccccc3)cc2)NC(=O)[C@H](CCCCN)NC(=O)[C@H](CCCCN)NC(=O)[C@H](Cc2ccc3ccccc3c2)NC(=O)[C@H](CCCCN)NC(=O)[C@H](CC(N)=O)NC1=O (cyclo([2Nal]KK[Bip][GABA][2Nal]KNK)) please. 32
